Data provenance: patent US20150030595A1

Assayed system: DLK1-Fc fusion protein (human)
Sequence (chain, as listed by the source limits assumed, form in doubt): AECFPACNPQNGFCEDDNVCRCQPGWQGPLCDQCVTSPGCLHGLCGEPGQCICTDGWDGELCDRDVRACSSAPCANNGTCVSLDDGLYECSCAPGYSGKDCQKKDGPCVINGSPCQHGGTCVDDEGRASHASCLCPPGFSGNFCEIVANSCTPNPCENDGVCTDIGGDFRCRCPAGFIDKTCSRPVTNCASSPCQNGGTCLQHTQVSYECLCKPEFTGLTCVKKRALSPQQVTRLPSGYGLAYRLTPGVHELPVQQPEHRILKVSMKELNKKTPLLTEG
Measurement notes: phage ELISA, DLK1 coated
// OD490 lookup, one value per entry
Hi! Could you send only the number? It should be in OD, unit omitted.

Sample answers from the record:
| Binder | Units of measure | Numeric result |
| --- | --- | --- |
| DLK1 H12 (monoclonal scFv-phage) (scFv, V domains shown) VH: QVQLVQSGGGLVKPGGSLRLSCAASEFTFSDYYMSWVRQAPGKGLEWLSYISGSGITTYYADSVKGRFTISRDNGKKSLYLEMNSLRAEDTAVYYCARLQGHCSGGACSNWFDAWGQGTLITVSS VL: DIQMTQSPSSLSASVGDRLTITCRASQSILTYLNWYQQKPGKAPKLLIYAASSLQRGVPSRFSGSGSGTDFTLTISGLQPEDFATYYCQQGYGTPYTFGQGTKVDIK | OD | 3.2 |
| DLK1 B09 (monoclonal scFv-phage) (scFv, V domains shown) VH: QMQLVESGGRLVRPGGSLRLSCAASGFPFTSYAMNWVRQTPGKGLEWVSTITATSGKTYYADSVKGRFTISRDNSRNTLFLQMNSLRAEDTAVYYCVRGESCSGGACSDFDYWGQGALVTVSS VL: QLVLTQPASVSGSPGQSVTISCTGTSSDIGRYNRVSWYQHHPGKAPKLILNDVTTRPSGFSNRFSGSKSGNTASLTISGLQAEDEADYSCGSYAGSYTYVFGTGTKVTVL | OD | 2.33 |

*Q* Please give the documented OD490 of DLK1 A05 (monoclonal scFv-phage) (scFv, V domains shown) VH: QMQLVESGGGLVQPGRSLRLSCAASGFTFDEHAMHWVRQAPGKGLEWVSGINWNSGKTGYADSVKGRFTISRDNGKNSLYLQMNSLRAEDTAVYYCAKSGGYGGNTNWYFDLWGRGTLVTVSS VL: QFVLTQPPSVSGAPGQNVTISCIGTSSNIGVGYDVHWYQQVPGTAPKLLVYGNNNRPSGVPDRFSGSKSGTSASLAITGLQAEDEADYYCQSYDSRLGVVFGGGTKLTVL
*A* 2.99
